Origin of the recorded values: PubChem BioAssay

Assay: small-molecule microarray binders of probe aXIP, primary screen, biochemical, NeuroSMM set, 635/667 nm fluorescence (AID 1119);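 also: probe is the protein aXip251-270 applied at 1 µg/mL to compound-printed slides; binding of probe to printed compounds measured as 667 nm fluorescence plus signal to noise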
Conditions: higher = more signal, called active from +8 up or from −8 down
Endpoint Name: composite Z-score
Answer using only a numeral; do not append any unit.

CC(C)=CCCC(C)=CCON=C1[C@H]2CCn3c(=O)n(Cc4cc5c(cc4Cl)OCO5)c(=O)n3[C@H]2[C@H](O)[C@@H]2O[C@H]12	-0.116
COC(=O)[C@@]1(Cc2ccc(F)cc2)[C@@H]2C(=CC(=O)[C@H]2CC(=O)C(=O)N(C)C)CN1C(=O)c1ccccc1	-1.12
COC(=O)[C@@]1(Cc2ccc(OC)cc2)[C@H]2c3cc(C(=O)N4CCCC4)n(Cc4cc(F)c(F)c(F)c4)c3C[C@H]2CN1C(=O)c1ccccc1	0.188

Proceed to the following item.
### Prompt For the molecule CCOC(=O)[C@H](CC(C)C)NC(=O)CCC1CC(OC(=O)NCc2cccc3ccccc23)CC2(CCCC(COC(=O)NCCN3CCOCC3)O2)O1 (some centres undefined) , report composite Z-score.
### Response 0.0928
